Numbers sourced from ChEMBL document CHEMBL4354827.

- Assay: Drug level in NSA mouse brain at 0.3 mg/kg, po after 120 to 150 mins
- Format: ADME, organism-based
- Condition set: in vivo, read-out: Drug uptake
Readout: concentration

# concentration of Cc1cc(/C(=C/Nc2ccc(Cl)cc2)C(=O)Nc2ccc(Cl)cc2)on1 [AVL-3288] = 150 to 300 nM

----------
- Assay: Ratio of Cmax in brain to plasma in Wistar rat at 10 mg/kg, po after 144 hrs by LC-MS/MS analysis
- Format: ADME, organism-based
Readout: Kp at 144 h
Please state the value as a number alone, without comment.

# Kp at 144 h of CCC(=O)c1sc(-c2ccc(Cl)cc2)c(C)c1-c1ccc(S(N)(=O)=O)cc1 = 10

----------
- Assay: Tmax in Wistar rat at 1 mg/kg, iv after 0.083 to 144 hrs by LC-MS/MS analysis
- Type: ADME, organism-based
- Condition set: in vivo
# maps each entry to its Tmax
Record the value in min, omitting the unit from your answer.

- CCC(=O)c1sc(-c2ccc(Cl)cc2)c(C)c1-c1ccc(S(N)(=O)=O)cc1: 4.8

# Tmax of CCC(=O)c1sc(-c2ccc(OC)cc2)c(C)c1-c1ccc(S(N)(=O)=O)cc1 = 4.8

----------
- Assay: Half life in BALB/c mouse at 10 mg/kg, po after 0.25 to 144 hrs by LC-MS/MS analysis
- Format: ADME, organism-based
- Condition set: in vivo
Readout: half-life (min)
Record the value in min, omitting the unit from your answer.

# half-life of CCC(=O)c1sc(-c2ccc(Cl)cc2)c(C)c1-c1ccc(S(N)(=O)=O)cc1 = 1320

----------
- Assay: Drug level in scopolamine-induced Sprague-Dawley rat brain at 0.5 mg/kg, po for 7 days
- Type: ADME, organism-based
- Condition set: read-out: Drug uptake
Readout: concentration at 168 h (µM)
Record the value in µM, omitting the unit from your answer.

# concentration at 168 h of CCC(=O)c1sc(-c2ccc(Cl)cc2)c(C)c1-c1ccc(S(N)(=O)=O)cc1 = 2.13

----------
- Assay: Protein binding in dog plasma assessed as unbound fraction at 5 uM incubated for 16 hrs under shaking condition by LC/MS/MS based rapid equilibrium dialysis method
- Format: ADME, cell-free, Canis lupus familiaris
Readout: fraction unbound at 16 h, 5 µM

# fraction unbound at 16 h, 5 µM of CCC(=O)c1sc(-c2ccc(Cl)cc2)c(C)c1-c1ccc(S(N)(=O)=O)cc1 = 0.0031

----------
- Assay: Drug level in scopolamine-induced Sprague-Dawley rat plasma at 0.05 mg/kg, po for 7 days
- Assay type: ADME, organism-based
Readout: concentration at 168 h (nM)
Record the value in nM, omitting the unit from your answer.

# concentration at 168 h of CCC(=O)c1sc(-c2ccc(Cl)cc2)c(C)c1-c1ccc(S(N)(=O)=O)cc1 = 60

----------
- Assay: Tmax in BALB/c mouse at 1 mg/kg, iv after 0.083 to 144 hrs by LC-MS/MS analysis
- Format: ADME, organism-based
- Condition set: in vivo
Readout: Tmax (min)
Record the value in min, omitting the unit from your answer.

# Tmax of CCC(=O)c1sc(-c2ccc(Cl)cc2)c(C)c1-c1ccc(S(N)(=O)=O)cc1 = 4.8

----------
- Assay: Drug level in Sprague-Dawley rat plasma at 0.5 mg/kg, po for 7 days
- Type: ADME, organism-based
Readout: concentration at 168 h (nM)
Record the value in nM, omitting the unit from your answer.

# concentration at 168 h of CCC(=O)c1sc(-c2ccc(Cl)cc2)c(C)c1-c1ccc(S(N)(=O)=O)cc1 = 1120
